# targetOrSystem: T1, hPD-1 mIg fusion protein (human; mouse, UniProt Q15116 25-170)
# T1 construct: extracellular domain; not shown: CH2-CH3 domain of mouse IgG2a heavy chain (plasmid pmIgG)
# T1 sequence (Q15116 25-170): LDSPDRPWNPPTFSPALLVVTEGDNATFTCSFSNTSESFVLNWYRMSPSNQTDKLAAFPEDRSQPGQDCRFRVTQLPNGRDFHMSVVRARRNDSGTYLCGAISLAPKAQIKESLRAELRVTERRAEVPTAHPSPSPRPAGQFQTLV
# experimentDescription: SPR Biacore T100, hPD-1mIg immobilised by amine coupling, antibody as analyte
# Protocol: Binding affinity and kinetics determination of the humanized antibodies: The binding affinity and kinetics of the humanized PD-1 mAbs interact with hPD-1 protein was assessed with Biacore T100 (GE Healthcare Life Sciences). […] Nine different concentrations were tested for each sample. Detailed binding kinetic parameters (association rate, Ka, dissociation rate, Kd, and affinity constant, KD) can be determined by full kinetic analysis.
Listed binders paired with reported Kd

| binder | Kd, nM |
| --- | --- |
| Variant 4 (antibody, V domains shown, Humanized; VH variant b, VK variant a; Constant regions not spelled out; chimeric parent has human IgG4-S228P and human kappa; also called mutant combination 4) VH: EVQLVESGGGLVQPGGSLRLSCAASGFTFSSYTMSWVRQAPGKGLEWVSYISHGGGDTYYPDSVKGRFTISRDNSKNTLYLQMNSLRAEDTAVYYCARHSGYERGYYYVMDYWGQGTLVTVSS VL: DIVMTQSPDSLAVSLGERATINCKSSESVDYYGFSFLNWFQQKPGQPPKLLIYAASNRESGVPDRFSGSGSGTDFTLTISSLQAEDVAVYYCQQSKEVPWTFGQGTKLEIKR | 0.338 |
| Variant 9 (antibody, V domains shown, Humanized; VH variant c, VK variant c; Constant regions not spelled out; also called mutant combination 9) VH: EVKLLESGGGLVQPGGSLRLSCAASGFTFSSYTMSWVRQAPGKGLEWVSYISHGGGDTYYPDSVKGRFTISRDNSKNTLYLQMNSLRAEDTAVYYCARHSGYERGYYYVMDYWGKGTTVTVSS VL: DIQLTQSPDSLSVSLGERATINCKASESVDYYGFSFLNWFQQKPGQPPKLLIYAASNRQSGVPDRFSGSGSGTDFTLTISSLQAEDVAVYFCQQSKEVPWTFGQGTKLEIK | 0.123 |
| Variant 3 (TY101) (antibody, V domains shown, Humanized; VH variant a, VK variant c; Constant regions not spelled out; chimeric parent has human IgG4-S228P and human kappa; also called mutant combination 3) VH: EVQLVESGGGLVQPGGSLRLSCAASGFTFSSYTMSWVRQAPGKGLEWVSYISHGGGDTYYADSVKGRFTISRDNSKNTLYLQMNSLRAEDTAVYYCARHSGYERGYYYVMDYWGQGTLVTVSS VL: DIQLTQSPDSLSVSLGERATINCKASESVDYYGFSFLNWFQQKPGQPPKLLIYAASNRQSGVPDRFSGSGSGTDFTLTISSLQAEDVAVYFCQQSKEVPWTFGQGTKLEIKR | 0.0963 |
| Variant 5 (antibody, V domains shown, Humanized; VH variant b, VK variant b; Constant regions not spelled out; chimeric parent has human IgG4-S228P and human kappa; also called mutant combination 5) VH: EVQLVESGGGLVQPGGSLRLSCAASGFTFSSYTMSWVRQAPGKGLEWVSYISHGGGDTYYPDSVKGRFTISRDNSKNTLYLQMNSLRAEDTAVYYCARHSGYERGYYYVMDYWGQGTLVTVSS VL: DIVMTQSPDSLAVSLGERATINCKASESVDYYGFSFLNWFQQKPGQPPKLLIYAASNRESGVPDRFSGSGSGTDFTLTISSLQAEDVAVYYCQQSKEVPWTFGQGTKLEIKR | 0.329 |
| Variant 1 (antibody, V domains shown, Humanized; Constant regions not spelled out for the humanized antibodies; the chimeric parent has human IgG4-S228P and human kappa; also called mutant combination 1) VH: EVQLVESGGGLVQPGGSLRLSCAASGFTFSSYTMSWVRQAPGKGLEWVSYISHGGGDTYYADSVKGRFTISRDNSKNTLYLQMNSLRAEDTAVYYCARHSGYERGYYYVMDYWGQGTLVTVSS VL: DIVMTQSPDSLAVSLGERATINCKSSESVDYYGFSFLNWFQQKPGQPPKLLIYAASNRESGVPDRFSGSGSGTDFTLTISSLQAEDVAVYYCQQSKEVPWTFGQGTKLEIKR | 0.293 |
